Values from patent US20240246979A1

For each record, write down the corresponding pIC50.
# systemName: cGAS (Homo sapiens)
# Sequence (Q8N884 whole entry): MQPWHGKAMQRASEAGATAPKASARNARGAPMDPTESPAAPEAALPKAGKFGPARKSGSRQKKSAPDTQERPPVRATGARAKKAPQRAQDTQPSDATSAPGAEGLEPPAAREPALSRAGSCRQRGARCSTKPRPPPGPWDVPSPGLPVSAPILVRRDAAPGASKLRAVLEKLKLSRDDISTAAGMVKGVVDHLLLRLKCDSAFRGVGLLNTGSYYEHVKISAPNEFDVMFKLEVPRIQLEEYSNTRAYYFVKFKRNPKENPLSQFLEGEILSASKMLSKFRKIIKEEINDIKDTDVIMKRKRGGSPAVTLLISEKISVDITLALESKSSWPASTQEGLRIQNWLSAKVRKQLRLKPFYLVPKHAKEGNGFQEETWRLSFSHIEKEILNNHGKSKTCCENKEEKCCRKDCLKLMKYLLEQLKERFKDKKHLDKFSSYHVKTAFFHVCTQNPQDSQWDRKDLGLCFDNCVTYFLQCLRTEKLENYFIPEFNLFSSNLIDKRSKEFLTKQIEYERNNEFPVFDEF
# experiment: In vitro inhibition assay of cGAS activity (cGAMP production, RapidFire mass spectrometry)
# Format: biochemical
# Parameters: Insert cDNA encoding full-length of human cGAS; His6; made in house; host or cells: E. coli BL21(DE3)
# experimentalParameters: 10 nM recombinant human cGAS, 60 nM 75-bp dsDNA, 50 μM ATP, 50 μM GTP, 3 hrs
Give bare numbers, as −log10 of the molar value.

[
  {
    "molecule": "COCC[C@H]1CNC(=O)[C@@H](C)c2c1[nH]c1c(Cl)c(Cl)cc(NCCO)c21 (single isomer, unassigned) [Example 174]",
    "pIC50": 6.44
  },
  {
    "molecule": "C[C@@H]1CNC(=O)[C@H](C)c2c1[nH]c1c(Cl)c(Cl)cc(NC(=O)CO)c21 (relative stereo) [Example 159]",
    "pIC50": 7.22
  },
  {
    "molecule": "CC1C(=O)NCCc2[nH]c3c(Cl)c(Cl)cc(OC[C@H]4CCO4)c3c21 (stereo partly drawn) [Example 180]",
    "pIC50": 7.63
  },
  {
    "molecule": "COCC(=O)Nc1cc(Cl)c(Cl)c2[nH]c3c(c12)[C@@H](C)C(=O)NCC3 (single isomer, unassigned) [Example 41]",
    "pIC50": 5.14
  },
  {
    "molecule": "Nc1noc(-c2cc(Cl)c(Cl)c3[nH]c4c(c23)CC(=O)NCC4)n1 [Example 33]",
    "pIC50": 7.69
  },
  {
    "molecule": "Cn1ncc(-c2cc(Cl)c(Cl)c3[nH]c4c(c23)CC(=O)NCC4CCNCC(F)(F)F)n1 (stereo not drawn) [Example 112]",
    "pIC50": 7.29
  },
  {
    "molecule": "C[C@@H](O)CNc1cc(Cl)c(Cl)c2c1c1c(n2C)CCNC(=O)[C@@H]1C (single isomer, unassigned) [Example 101]",
    "pIC50": 5.90
  },
  {
    "molecule": "CCCC1CNC(=O)Cc2c1[nH]c1c(Cl)c(Cl)cc(-c3cnn(C)n3)c21 (stereo not drawn) [Example 164]",
    "pIC50": 7.72
  }
]

Hi! Can you tell me pIC50 for each of these molecules?
1. CN(C)C(=O)CC1CNC(=O)Cc2c1[nH]c1c(Cl)c(Cl)cc(-c3cnn(C)n3)c21 (stereo not drawn) [Example 7]
2. CCOc1cc(Cl)c(Cl)c2[nH]c3c(c12)[C@H](C)C(=O)NCC3 (single isomer, unassigned) [Example 15A]
3. C[C@H]1C(=O)NCCc2[nH]c3c(Cl)c(Cl)cc(N[C@@H]4CCOC4)c3c21 (single isomer, unassigned) [Example 65]
4. Cn1c2c(c3c(OCC#N)cc(Cl)c(Cl)c31)CC(=O)NC[C@H]2CCO (single isomer, unassigned) [Example 125]
5. CCC1C(=O)NCCc2[nH]c3c(Cl)c(Cl)cc(NC(=O)CO)c3c21 (stereo not drawn) [Example 11]
6. N#CCc1cc(Cl)c(Cl)c2[nH]c3c(c12)CC(=O)NCC3CCO (stereo not drawn) [Example 113]
7. CC1Cc2[nH]c3c(Cl)c(Cl)cc(NCCO)c3c2CC(=O)N1 (stereo not drawn) [Example 165]
8. C[C@H]1C(=O)NCCc2[nH]c3c(Cl)c(Cl)cc(-c4cnn(C)n4)c3c21 [Example 38]

Result:
[7.55, 7.65, 6.05, 7.74, 7.34, 7.43, 7.35, 5.78]

Hi team, please reply with pIC50 for each item in this list.
1. COCC[C@@H]1CNC(=O)[C@H](C)c2c1[nH]c1c(Cl)c(Cl)cc(NCCO)c21 (racemic) [Example 170]
2. O=C1Cc2c([nH]c3c(Cl)c(Cl)cc(NCCCO)c23)CCN1 [Example 22]
3. CC1C(=O)NCCc2c1c1c(OCC#N)cc(Cl)c(Cl)c1n2C (stereo not drawn) [Example 78]
4. Cn1ncc(-c2cc(Cl)c(Cl)c3[nH]c4c(c23)CC(=O)NC[C@H]4CC(C)(F)F)n1 (single isomer, unassigned) [Example 136]
5. COCC[C@H]1CNC(=O)[C@H](C)c2c1[nH]c1c(Cl)c(Cl)cc(NCCO)c21 (single isomer, unassigned) [Example 171]
6. CC1C(=O)NCCc2[nH]c3c(Cl)c(Cl)cc(OCCO)c3c21 (stereo not drawn) [Example 18]

Result:
1: 7.56; 2: 7.34; 3: 7.33; 4: 7.80; 5: 8.11; 6: 7.15
